# protocolText: Cytotoxicity against rat RK3E cells harboring RAS assessed as cell growth inhibition measured after 24 hrs by MTT assay
# Assay type: toxicity, cell-based
For each record, write down the corresponding IC50 at 24 h.
For clarity, give the value followed by its unit.

{"chemSmiles": "CC(C)(C)C(=O)Nc1ccc2c(c1)/C(=C1/Nc3ccccc3/C1=N\\O)C(=O)N2", "IC50 at 24 h": "6.4 µM"}
{"chemSmiles": "O=C1Nc2ccc(F)cc2/C1=C1/Nc2ccccc2/C1=N\\O", "IC50 at 24 h": "5.1 µM"}

Below: the item to evaluate.
// IC50 at 24 h lookup, compound = O=C1Nc2ccc([N+](=O)[O-])cc2/C1=C1/Nc2ccccc2/C1=N\O , result: 1 µM

---

# Tested on: DU-145
# protocolText: Antiproliferative activity against human DU-145 cells assessed as cell growth inhibition by MTT assay
# Type: functional, cell-based
valueType: pIC50
Numbers only, as −log10 of the molar value.

{"chemSmiles": "CN1C(=O)/C(=C2\\Nc3ccc(Cl)cc3\\C2=N/O)c2cccnc21", "targetDesc": "DU-145", "valueType": "pIC50", "valueMeasured": 5.74}
{"chemSmiles": "CCN1C(=O)/C(=C2\\Nc3ccccc3\\C2=N/O)c2cccnc21", "targetDesc": "DU-145", "valueType": "pIC50", "valueMeasured": 5.10}
{"chemSmiles": "CCN1C(=O)/C(=C2\\Nc3ccccc3C2=O)c2cccnc21", "targetDesc": "DU-145", "valueType": "pIC50", "valueMeasured": 4.40}

Below: the item to evaluate.
pIC50 of CN1C(=O)/C(=C2\Nc3ccc(Cl)cc3C2=O)c2cccnc21 , assay on DU-145, is 5.10

---

# Tested on: PANC-1
# protocolText: Antiproliferative activity against human PANC-1 cells assessed as cell growth inhibition measured after 42 hrs by MTS assay
# Assay type: functional, cell-based
# testContext: PANC-1, 42 h
valueType: pIC50
One number for each entry, as −log10 of the molar value.

// pIC50 lookup, compound = COc1ccc2c(c1)/C(=C1/Nc3ccccc3/C1=N\OCC(O)CO)C(=O)N2 (stereo unspecified) , result: 6.12

---

# Tested on: MCF7
# protocolText: Cytotoxicity against human MCF7 cells assessed as cell growth inhibition by MTT assay
# Type: functional, cell-based
valueType: pIC50
Answers are plain numbers, as −log10 of the molar value.

The following compounds have reported results that may help.
{"chemSmiles": "CN1C(=O)/C(=C2\\Nc3ccccc3\\C2=N/O)c2ccccc21", "targetDesc": "MCF7", "pIC50": 4.23}
{"chemSmiles": "CCN1C(=O)/C(=C2\\Nc3ccccc3\\C2=N/O)c2ccccc21", "targetDesc": "MCF7", "pIC50": 5.17}

// pIC50 lookup, compound = CCCN1C(=O)/C(=C2\Nc3ccccc3\C2=N/O)c2ccccc21 , result: 4.06

---

# targetDesc: Cyclin-dependent kinase 5/CDK5 activator 1 (Homo sapiens)
# Sequence (Q00535 whole entry, the tested form may be a part): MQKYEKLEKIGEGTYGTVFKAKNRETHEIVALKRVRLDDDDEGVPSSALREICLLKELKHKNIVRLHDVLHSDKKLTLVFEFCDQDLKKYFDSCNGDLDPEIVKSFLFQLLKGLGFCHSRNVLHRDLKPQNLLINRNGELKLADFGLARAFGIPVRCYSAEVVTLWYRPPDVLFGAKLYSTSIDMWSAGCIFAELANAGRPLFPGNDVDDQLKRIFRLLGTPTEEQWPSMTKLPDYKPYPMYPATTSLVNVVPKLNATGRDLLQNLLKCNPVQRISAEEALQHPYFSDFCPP
# Sequence (Q15078 whole entry, further chain, the tested form may be a part): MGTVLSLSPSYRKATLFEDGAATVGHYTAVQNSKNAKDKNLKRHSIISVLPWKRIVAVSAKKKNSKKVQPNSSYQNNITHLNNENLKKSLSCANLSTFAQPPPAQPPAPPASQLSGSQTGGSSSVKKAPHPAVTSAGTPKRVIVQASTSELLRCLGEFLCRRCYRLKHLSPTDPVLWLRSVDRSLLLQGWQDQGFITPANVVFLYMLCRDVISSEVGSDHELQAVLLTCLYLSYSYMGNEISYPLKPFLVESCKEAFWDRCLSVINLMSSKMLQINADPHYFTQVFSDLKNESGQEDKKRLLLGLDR
# protocolText: Inhibition of GST-fused CDK5/p25 (unknown origin)
# Type: protein-complex assay
valueType: IC50

// IC50 lookup, molecule = CN1C(=O)/C(=C2\Nc3ccccc3\C2=N/O)c2ccccc21 , result: > 100 µM

---

# targetDesc: Tyrosine-protein kinase Lyn (Homo sapiens)
# Sequence (P07948 whole entry): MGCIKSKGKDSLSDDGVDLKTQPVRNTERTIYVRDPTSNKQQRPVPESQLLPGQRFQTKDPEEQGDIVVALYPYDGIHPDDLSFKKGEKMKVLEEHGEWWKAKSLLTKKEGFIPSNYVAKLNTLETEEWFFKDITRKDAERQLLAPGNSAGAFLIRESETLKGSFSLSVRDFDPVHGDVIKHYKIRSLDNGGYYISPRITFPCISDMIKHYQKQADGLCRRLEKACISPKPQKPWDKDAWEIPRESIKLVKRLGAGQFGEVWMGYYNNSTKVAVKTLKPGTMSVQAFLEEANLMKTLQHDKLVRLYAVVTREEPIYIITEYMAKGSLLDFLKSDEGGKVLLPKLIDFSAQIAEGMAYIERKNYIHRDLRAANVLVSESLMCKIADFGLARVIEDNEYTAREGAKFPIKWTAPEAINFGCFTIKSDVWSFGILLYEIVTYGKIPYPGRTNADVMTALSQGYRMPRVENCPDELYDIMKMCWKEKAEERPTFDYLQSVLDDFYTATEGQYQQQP
# protocolText: Inhibition of recombinant Lyn (unknown origin)
valueType: pIC50
Numbers only, as −log10 of the molar value.

// pIC50 lookup, molecule = COc1ccc2c(c1)/C(=C1/Nc3ccccc3/C1=N\OCC(O)CO)C(=O)N2 (stereo unspecified) , result: 7.97

---

# targetDesc: Tyrosine-protein kinase JAK1 (Homo sapiens, UniProt P23458)
# Sequence (P23458 whole entry): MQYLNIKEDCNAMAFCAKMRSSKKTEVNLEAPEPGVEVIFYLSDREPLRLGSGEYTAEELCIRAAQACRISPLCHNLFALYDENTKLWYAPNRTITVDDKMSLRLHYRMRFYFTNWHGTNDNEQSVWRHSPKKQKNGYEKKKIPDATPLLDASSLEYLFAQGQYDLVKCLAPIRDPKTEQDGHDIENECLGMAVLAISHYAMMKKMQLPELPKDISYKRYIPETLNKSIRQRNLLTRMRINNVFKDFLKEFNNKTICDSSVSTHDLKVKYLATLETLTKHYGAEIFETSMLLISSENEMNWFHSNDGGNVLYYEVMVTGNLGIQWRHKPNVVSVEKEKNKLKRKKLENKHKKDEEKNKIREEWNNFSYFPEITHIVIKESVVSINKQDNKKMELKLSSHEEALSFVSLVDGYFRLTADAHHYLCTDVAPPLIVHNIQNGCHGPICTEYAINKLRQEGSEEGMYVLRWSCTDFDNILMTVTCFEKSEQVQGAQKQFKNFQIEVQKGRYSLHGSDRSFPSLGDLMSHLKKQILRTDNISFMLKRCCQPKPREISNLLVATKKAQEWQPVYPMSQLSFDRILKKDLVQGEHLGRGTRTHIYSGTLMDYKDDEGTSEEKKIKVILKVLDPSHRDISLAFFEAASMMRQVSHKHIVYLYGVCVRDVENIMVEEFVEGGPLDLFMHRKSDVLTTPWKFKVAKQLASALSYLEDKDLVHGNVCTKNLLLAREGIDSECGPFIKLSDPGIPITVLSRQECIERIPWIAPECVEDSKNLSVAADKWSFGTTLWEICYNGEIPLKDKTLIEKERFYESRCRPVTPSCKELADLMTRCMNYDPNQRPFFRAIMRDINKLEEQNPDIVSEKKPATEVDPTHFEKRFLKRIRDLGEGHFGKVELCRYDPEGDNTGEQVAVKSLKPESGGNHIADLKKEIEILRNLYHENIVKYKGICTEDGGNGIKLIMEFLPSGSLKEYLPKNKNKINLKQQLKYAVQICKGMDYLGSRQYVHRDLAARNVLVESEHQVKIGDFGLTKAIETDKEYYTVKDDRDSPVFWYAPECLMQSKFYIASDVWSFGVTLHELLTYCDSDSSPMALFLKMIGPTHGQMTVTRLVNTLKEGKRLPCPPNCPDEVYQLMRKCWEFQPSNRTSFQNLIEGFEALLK
# protocolText: Inhibition of recombinant JAK1 (unknown origin)
valueType: IC50 (nM)
Numbers only, in nM.

IC50 of COc1ccc2c(c1)/C(=C1/Nc3ccccc3/C1=N\OCC(O)CO)C(=O)N2 (stereo unspecified) , assay on Tyrosine-protein kinase JAK1 (Homo sapiens, UniProt P23458), is 10.7

---

# targetDesc: Aurora kinase C (Homo sapiens, UniProt Q9UQB9)
# Sequence (Q9UQB9 whole entry): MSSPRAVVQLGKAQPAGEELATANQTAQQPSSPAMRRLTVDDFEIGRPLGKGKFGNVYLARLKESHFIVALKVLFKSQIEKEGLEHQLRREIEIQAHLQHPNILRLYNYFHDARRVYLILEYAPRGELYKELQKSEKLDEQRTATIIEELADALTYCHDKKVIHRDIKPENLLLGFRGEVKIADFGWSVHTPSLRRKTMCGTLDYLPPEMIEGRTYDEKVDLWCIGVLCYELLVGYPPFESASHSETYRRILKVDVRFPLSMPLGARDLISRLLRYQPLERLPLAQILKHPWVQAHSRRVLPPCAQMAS
valueType: pIC50
One number for each entry, as −log10 of the molar value.

// pIC50 lookup, compound = CC(=O)O/N=C1/C(=C2/C(=O)Nc3c(Br)cccc32)Nc2ccccc21 , result: 7.00

---

# targetDesc: Tyrosine-protein kinase JAK2 (Homo sapiens, UniProt O60674)
# Sequence (O60674 whole entry): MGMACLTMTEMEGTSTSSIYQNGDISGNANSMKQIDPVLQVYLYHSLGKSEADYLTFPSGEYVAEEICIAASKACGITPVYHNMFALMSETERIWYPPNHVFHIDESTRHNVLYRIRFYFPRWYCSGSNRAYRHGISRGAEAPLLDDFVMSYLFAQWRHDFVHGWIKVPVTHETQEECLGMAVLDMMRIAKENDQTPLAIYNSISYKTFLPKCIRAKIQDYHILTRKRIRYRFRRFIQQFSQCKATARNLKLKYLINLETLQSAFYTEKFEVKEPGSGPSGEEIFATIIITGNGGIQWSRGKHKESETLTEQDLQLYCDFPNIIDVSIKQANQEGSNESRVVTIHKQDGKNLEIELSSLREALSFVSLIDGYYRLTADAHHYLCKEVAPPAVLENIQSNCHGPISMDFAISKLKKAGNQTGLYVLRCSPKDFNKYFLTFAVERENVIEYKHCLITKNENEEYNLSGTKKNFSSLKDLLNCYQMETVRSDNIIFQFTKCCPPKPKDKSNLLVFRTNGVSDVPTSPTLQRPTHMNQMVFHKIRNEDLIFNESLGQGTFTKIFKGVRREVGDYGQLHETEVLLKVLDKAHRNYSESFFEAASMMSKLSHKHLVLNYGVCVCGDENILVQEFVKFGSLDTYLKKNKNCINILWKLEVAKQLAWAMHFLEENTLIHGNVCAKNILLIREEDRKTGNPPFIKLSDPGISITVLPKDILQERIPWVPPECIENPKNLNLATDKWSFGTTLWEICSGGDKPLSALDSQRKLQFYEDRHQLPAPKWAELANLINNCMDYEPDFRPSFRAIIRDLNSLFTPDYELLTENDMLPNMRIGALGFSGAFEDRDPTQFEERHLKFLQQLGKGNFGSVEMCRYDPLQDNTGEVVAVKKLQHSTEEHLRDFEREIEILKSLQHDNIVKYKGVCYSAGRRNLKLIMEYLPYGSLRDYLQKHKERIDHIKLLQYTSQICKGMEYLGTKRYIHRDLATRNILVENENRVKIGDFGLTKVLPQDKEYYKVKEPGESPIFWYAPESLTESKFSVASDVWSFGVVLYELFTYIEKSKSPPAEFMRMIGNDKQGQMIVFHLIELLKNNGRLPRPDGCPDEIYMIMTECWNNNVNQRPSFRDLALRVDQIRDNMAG
# protocolText: Inhibition of recombinant JAK2 (unknown origin)
valueType: IC50 (nM)
One number for each entry, in nM.

// IC50 lookup, molecule = COc1ccc2c(c1)/C(=C1/Nc3ccccc3/C1=N\OCC(O)CO)C(=O)N2 (stereo unspecified) , result: 10.7

---

# System: A549
# protocolText: Antiproliferative activity against human A549 cells assessed as cell growth inhibition measured after 96 hrs by MTT assay
# Type: functional, cell-based
# testContext: A549, 96 h
valueType: IC50 (µM)
Numbers only, in µM.

The following compounds have reported results that may help.
{"chemSmiles": "NCCO/N=C1/C(=C2/C(=O)Nc3ccc(Br)cc32)Nc2ccc(O)cc21", "targetDesc": "A549", "IC50 [µM]": 1}
{"chemSmiles": "CC(=O)O[C@H](CN)CC(=O)O/N=C1/C(=C2/C(=O)Nc3ccccc32)Nc2ccc(O)cc21", "targetDesc": "A549", "IC50 [µM]": 7.6}

// IC50 lookup, compound = NCCO/N=C1/C(=C2/C(=O)Nc3ccccc32)Nc2ccc(O)cc21 , result: 13

---

# Test system: PC-3
# protocolText: Cytotoxicity against human PC-3 cells assessed as cell growth inhibition by MTT assay
# Assay type: functional, cell-based
valueType: IC50
For clarity, give the value followed by its unit.

IC50 of CCN1C(=O)/C(=C2\Nc3ccccc3\C2=N/O)c2ccccc21 , assay on PC-3, is 13.4 µM

---

# Test system: U-118-MG
# protocolText: cells
# testContext: Homo sapiens, 24 h
# Description: Cytotoxicity against human U-118-MG cells assessed as cell growth inhibition measured after 24 hrs by MTT assay
valueType: pIC50
Give bare numbers, as −log10 of the molar value.

// pIC50 lookup, molecule = O=C1Nc2ccccc2/C1=C1/Nc2ccccc2C1=O , result: 4.90

---

# targetDesc: Aurora kinase A (Homo sapiens)
# Sequence (O14965 whole entry): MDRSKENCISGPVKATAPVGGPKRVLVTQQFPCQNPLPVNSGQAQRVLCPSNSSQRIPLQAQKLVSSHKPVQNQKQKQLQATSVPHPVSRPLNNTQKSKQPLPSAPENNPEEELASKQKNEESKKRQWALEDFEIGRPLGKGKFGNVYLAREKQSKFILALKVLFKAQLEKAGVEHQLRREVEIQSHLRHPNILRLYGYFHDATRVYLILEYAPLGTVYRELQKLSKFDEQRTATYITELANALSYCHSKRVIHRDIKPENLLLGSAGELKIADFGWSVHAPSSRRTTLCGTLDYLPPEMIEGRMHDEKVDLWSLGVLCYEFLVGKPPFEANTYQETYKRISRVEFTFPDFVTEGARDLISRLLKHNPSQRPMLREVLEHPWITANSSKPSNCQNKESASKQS
valueType: IC50 (µM)
Numbers only, in µM.

// IC50 lookup, molecule = CC(=O)O/N=C1/C(=C2/C(=O)Nc3c(Br)cccc32)Nc2ccccc21 , result: 20

---

# targetDesc: UniProtKB P12931
# Sequence (P12931 2-536 limits assumed): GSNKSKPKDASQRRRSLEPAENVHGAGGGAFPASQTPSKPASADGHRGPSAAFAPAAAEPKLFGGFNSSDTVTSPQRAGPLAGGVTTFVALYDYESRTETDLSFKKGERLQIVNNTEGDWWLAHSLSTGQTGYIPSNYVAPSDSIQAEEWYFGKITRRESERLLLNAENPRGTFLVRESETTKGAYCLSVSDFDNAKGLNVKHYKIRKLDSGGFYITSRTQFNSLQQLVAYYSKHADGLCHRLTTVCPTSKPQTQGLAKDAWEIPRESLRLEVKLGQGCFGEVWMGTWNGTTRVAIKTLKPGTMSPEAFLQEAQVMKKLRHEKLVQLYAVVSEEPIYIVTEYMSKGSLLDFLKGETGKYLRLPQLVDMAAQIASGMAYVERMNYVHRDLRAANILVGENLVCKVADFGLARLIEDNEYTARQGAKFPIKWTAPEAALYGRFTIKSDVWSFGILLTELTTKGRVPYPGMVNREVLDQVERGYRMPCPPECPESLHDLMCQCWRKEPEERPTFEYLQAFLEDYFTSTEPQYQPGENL
# protocolText: Inhibition of c-SRC in human MDA-MB-468 cells in presence of [gamma-32P]ATP and ATP by immunoprecipitation method
# Format: cell-based
valueType: IC50 (nM)
Answers are plain numbers, in nM.

// IC50 lookup, compound = O=C1Nc2ccccc2/C1=C1/Nc2ccccc2/C1=N\OCC(O)CO (stereo unspecified) , result: 950

---

For each record, write down the corresponding pIC50.
# targetDesc: CDK2/Cyclin A2 (Homo sapiens)
# protocolText: Inhibition of CDK2/cyclin A (unknown origin)
# Format: protein-complex assay
Numbers only, as −log10 of the molar value.

The following molecules have reported results that may help.
{"chemSmiles": "O=C1Nc2ccccc2/C1=C1/Nc2ccccc2/C1=N\\O", "valueType": "pIC50", "valueMeasured": 6.36}
{"chemSmiles": "CCN1C(=O)/C(=C2\\Nc3ccccc3C2=O)c2cccnc21", "valueType": "pIC50", "valueMeasured": 5.92}
{"chemSmiles": "O=C1Nc2ccccc2/C1=C1/Nc2ncccc2C1=O", "valueType": "pIC50", "valueMeasured": 5.06}

// pIC50 lookup, molecule = CC(C)N1C(=O)/C(=C2\Nc3ccccc3C2=O)c2cccnc21 , result: 5.02
